- Tested on: A549
- MEASUREMENT_DESCRIPTION: Antiproliferative activity against human A549 cells assessed as inhibition of cell proliferation incubated for 48 hrs by CCK8 assay
- Format: functional, cell-based
- ASSAY_CONDITIONS: A549, 48 h
pIC50: −log10 of the molar value.
Each entry below lists one item and its recorded pIC50 value.

Some solved entries appear below for comparison.
1) Cc1ccc(/C=C/C(=O)c2ccc(OCc3cn([C@H]4CC(=O)N5C[C@@H]6CCCN7CCC[C@@H]([C@H]67)[C@H]5C4)nn3)cc2)cc1 = 4.49
2) O=C1CCC[C@@H]2[C@H]3CCCN4CCC[C@@H](CN12)[C@@H]34 = < 4.30

We now examine a further molecule.
Could you tell me which pIC50 is on file for "C#CCOc1ccc(C(=O)/C=C/c2ccccc2)c(O)c1" ?
< 4.30

====

- Tested on: A549
- MEASUREMENT_DESCRIPTION: Antiproliferative activity against human A549 cells assessed as inhibition of cell proliferation incubated for 48 hrs by CCK8 assay
- Type: functional, cell-based
- ASSAY_CONDITIONS: A549, 48 h
Assign labels as follows, please: condition met for IC50 below 10 µM; condition not met for IC50 equal to or exceeding 10 µM.

1. O=C(/C=C/c1ccc(OC(F)F)cc1)c1ccc(OCc2cn([C@H]3CC(=O)N4C[C@@H]5CCCN6CCC[C@@H]([C@H]56)[C@H]4C3)nn2)cc1 = condition not met
2. O=C(/C=C/c1ccccc1)c1ccc(OCc2cn([C@H]3CC(=O)N4C[C@@H]5CCCN6CCC[C@@H]([C@H]56)[C@H]4C3)nn2)cc1 = condition not met
3. CC(=O)c1ccc(OCc2cn([C@H]3CC(=O)N4C[C@@H]5CCCN6CCC[C@@H]([C@H]56)[C@H]4C3)nn2)cc1 = condition not met
4. O=C(/C=C/c1ccc(Cl)cc1)c1ccc(OCc2cn([C@H]3CC(=O)N4C[C@@H]5CCCN6CCC[C@@H]([C@H]56)[C@H]4C3)nn2)cc1O = condition not met
5. O=C(/C=C/c1ccccc1)c1ccc(OCc2cn([C@H]3CC(=O)N4C[C@@H]5CCCN6CCC[C@@H]([C@H]56)[C@H]4C3)nn2)cc1O = condition not met
6. O=C(/C=C/c1ccc(Cl)c(Cl)c1)c1ccc(OCc2cn([C@H]3CC(=O)N4C[C@@H]5CCCN6CCC[C@@H]([C@H]56)[C@H]4C3)nn2)cc1 = condition met
7. O=C(/C=C/c1ccc(Cl)c(Cl)c1)c1ccc(OCc2cn([C@H]3CC(=O)N4C[C@@H]5CCCN6CCC[C@@H]([C@H]56)[C@H]4C3)nn2)cc1O = condition met
8. O=C(/C=C/c1ccccc1Cl)c1ccc(OCc2cn([C@H]3CC(=O)N4C[C@@H]5CCCN6CCC[C@@H]([C@H]56)[C@H]4C3)nn2)cc1 = condition not met
9. COc1cc(/C=C/C(=O)c2ccc(OCc3cn([C@H]4CC(=O)N5C[C@@H]6CCCN7CCC[C@@H]([C@H]67)[C@H]5C4)nn3)cc2O)cc(OC)c1OC = condition not met
10. O=C(/C=C/c1cccc(Cl)c1)c1ccc(OCc2cn([C@H]3CC(=O)N4C[C@@H]5CCCN6CCC[C@@H]([C@H]56)[C@H]4C3)nn2)cc1 = condition not met

Attention now shifts to the item below.
Hello, I'm reviewing records and need to know if IC50 of "O=C(/C=C/c1cccc(Cl)c1)c1ccc(OCc2cn([C@H]3CC(=O)N4C[C@@H]5CCCN6CCC[C@@H]([C@H]56)[C@H]4C3)nn2)cc1O" is below 10 µM. Could you check?
condition met
